FYI, the data here is from patent US20250381223A1.

Target: T1, recombinant human CD40-His antigen protein (human, UniProt P25942 21-193)
T1 construct: Bought protein; also called recombinant CD40-His protein; CD40 antigen; not shown: His tag
Assay: ELISA; plate coated with CD40-His 2 µg/mL; HRP-anti-hFc
What EC50 was measured for each of the following?
Answers are plain numbers, in µg/mL.

Answered examples (5):
>>> measuredvalue("4052.12 (antibody, V domains shown) VH: QVQLVQSGAEVKKPGSSVKVSCKASGGTFSSYAVSWVRQAPGQGLEWMGMINPSGGTTSYAQKFQGRVTMTRDTSTSTVYMELSSLRPEDTAVYYCARGFRMDQWGQGTLVTVSS VL: QSALTQPPSASGSPGQSVTISCTGTSSDVGAYNFVSWYQQHPGNAPKLIIYDVRKRPRGIPDRFSASKSGNTASLTVSGLQADDEADYYCSSYAGNNNLVFGGGTKLTVL")
0.124
>>> measuredvalue("4052.36 (antibody, V domains shown) VH: QVQLVQSGAQVKKPGSSVKVSCKASGGTFSSYAISWVRQAPGQGLEWMGMINPSGGTTSYAQKFQGRVTMTRDTSTSTVYMELSSLRPEDTAVYYCARGFRMDQWGQGTLVTVSS VL: QSALTQPPSASGSPGQSVTISCTGTSSDVGAYNFVSWYQQHPGNAPKLIIYDVRKRPIGIPDRFSASKSGNTASLTVSGLQADDEADYYCSSYAGNNNLVFGGGTKLTVL")
0.134
>>> measuredvalue("4052.25 (antibody, V domains shown) VH: QVQLVQSGAEVKKPGSSVKVSCKASGGTFSSYAISWVRQAPGQGLEWMGMINPSGGTTSYAQKFQGRVTMTRDTSTSTVYMELSSLRPEDTAVYYCARGFRMDQWGQGTLVTVSS VL: QSALTQPPSASGSPGQSVTISCTGTSSDVGAYNFVSWYQQHPGNAPKLIIYDVRKRPSGIPDRFSASKSGNTASLTVSGLQADDEADYYCSSYAGNNRLVFGGGTKLTVL")
0.111
>>> measuredvalue("4052.17 (antibody, V domains shown) VH: QVQLVQSGAEVKKPGSSVKVSCKASGGTFSSYAISWVRQAPGQGLEWMGMINPSGGTTSYAQKFQGRVTMTRDTSTSTVYMELSSLRPEDTAVYYCARGFRMDQWGQGTLVTVSS VL: QSALTQPPSASGSPGQSVTISCTGTSSDVGAYNFVSWYQQHPGNAPKLIIYDVRKRPSGIPDRFSASKSGNTASLTVSGLQADDEADYYCSSYAGNNEMVFGGGTKLTVL")
0.0944
>>> measuredvalue("4052.28 (antibody, V domains shown) VH: QVQLVQSGAEVKKPGSSVKVSCKASGGTFSSYAISWVRQAPGQGLEWMGMINPSGGTTSYAQKFQGRVTMTRDTSTSTVYMELSSLRPEDTAVYYCARGFRMDQWGQGTLVTVSS VL: QSALTQPPSASGSPGQSVTISCTGTSSDVGAYNFVSWYQQHPGNAPKLIIYDTRKRPSGIPDRFSASKSGNTASLTVSGLQADDEADYYCSSYAGNNNLVFGGGTKLTVL")
0.116

Input line: Consider the binder 40.52 (antibody, V domains shown, Tested as human IgG1 (VH on human CH1-Fc, VL on human CL)) VH: QVQLVQSGAEVKKPGSSVKVSCKASGGTFSSYAISWVRQAPGQGLEWMGMINPSGGTTSYAQKFQGRVTMTRDTSTSTVYMELSSLRPEDTAVYYCARGFRMDQWGQGTLVTVSS VL: QSALTQPPSASGSPGQSVTISCTGTSSDVGAYNFVSWYQQHPGNAPKLIIYDVRKRPSGIPDRFSASKSGNTASLTVSGLQADDEADYYCSSYAGNNNLVFGGGTKLTVL . State its measured EC50.
Output line: 0.0975
